Origin of the recorded values: PubChem BioAssay (NCI)

Tested on: SNB-19 CNS
Experiment: NCI tumour cell line growth inhibition, 48 h
*1 amine or outer side, *2 acyl side, *3 side chain or, on linkers, in order; H or OH if unused. Where a SMILES comes first, the peptide text is derived from it. Bridges are numbered along the chain shown (N, C = ends). [ ]: non-standard residue; d: D form. ξ: configuration not given here. X35 = CC[C@H](C)[C@@H](N[*:1])[C@@H](O)CC(=O)O[C@H](C(=O)[C@H](C)C(=O)[*:2])C(C)C; NMeY = CN[C@@H](Cc1ccc(O)cc1)C(=O)O; dNMeL = CN[C@H](CC(C)C)C(=O)O; ξΔPro = O=C(O)C1C=CCN1
reportedMetric: TGI (µM)
Give bare numbers, in µM.

Cc1cc2nc(-c3c(N)ncc(C#N)c3-c3ccc(Cl)cc3)[nH]c2cc1C : 75.6
CC(C)(CN1CCCCC1)C(/C=C/c1ccccc1)=N\NC(=O)N/N=C(/C=C/c1ccccc1)C(C)(C)CN1CCCCC1 : 3.95

Q: Lab note: need TGI with SNB-19 CNS for entry CC[C@H](C)[C@H]1NC(=O)[C@@H](NC(=O)[C@@H](CC(C)C)N(C)C(=O)C2C=CCN2)[C@@H](C)OC(=O)[C@H](Cc2ccc(OC)cc2)N(C)C(=O)[C@@H]2CCCN2C(=O)[C@H](CC(C)C)NC(=O)[C@@H](C)C(=O)[C@H](C(C)C)OC(=O)C[C@@H]1O (some centres not stated) (H-[ξΔPro][dNMeL]T[X35]LP[NMeY](Me); ester 3-C) , please look it up.
Ans: 0.00706

----------
Test system: OVCAR-3 ovarian
Assay: NCI tumour cell line growth inhibition, 48 h
Label fulfilled when TGI >= 30 µM; otherwise not fulfilled.

COc1ccc(C2SCC(=O)N2NC(=O)C(C)Oc2ccc(Cl)cc2Cl)cc1 (stereo unspecified) : fulfilled

Q: Is TGI for COc1ccccc1NC(=O)C1=C(C)NC(C)=C(C(=O)Nc2ccccc2OC)C1c1ccc(N(C)C)cc1 at or above 30 µM?
Ans: fulfilled

Q: Is TGI for CCCCCCCCCCCCCC(=O)NCC(OCC)OCC at or above 30 µM?
Ans: fulfilled

Q: Is TGI for COc1ccc(OC)c(C[P+](c2ccccc2)(c2ccccc2)c2ccccc2)c1 at or above 30 µM?
Ans: fulfilled

Q: Is TGI for Cc1c(Cl)cccc1NC(=O)/C(Cl)=C(\Cl)C(=O)O at or above 30 µM?
Ans: fulfilled

----------
Task for the reader: assign each of the following compounds its reported TGI.
Test system: SF-268 CNS
Assay: NCI tumour cell line growth inhibition, 48 h
Numbers only, in µM.

Worked cases, answers included:
COC(=O)c1cc(-c2ccc(OC)cc2)[nH]c1N/N=C/c1c(Cl)cccc1Cl : 10.4
CC1CN=C(c2ccc(CN3CCC(C4CCN(Cc5ccc(C6=NCC(C)N6)cc5)CC4)CC3)cc2)N1 (configuration not stated) : 53.7
C[C@]12CC[C@H]3[C@@H](CC[C@]4(O)C[C@@H](O)CC[C@]34CO)[C@@]1(O)CC[C@@H]2C1=CC(=O)OC1 : 3.25
CCN(CC)CCCC(C)Nc1cc(-c2ccccc2)nc2cc(OC)ccc12 (configuration not stated) : 32.9
C=CC(OC(C)=O)c1ccc(OC(C)=O)cc1 (configuration not stated) : 10.7

For each listed entry, give its TGI.
1. COc1ccccc1NC(=S)N/N=C/c1ccccn1
2. CC(C)(CN1CCCCC1)C(/C=C/c1ccccc1)=N\NC(=O)N/N=C(/C=C/c1ccccc1)C(C)(C)CN1CCCCC1
3. COc1ccc(N2C(=O)C3c4[nH]c5ccccc5c4C4CCCCCCC4C3C2=O)cc1 (configuration not stated)
4. Cc1cc2nc(-c3c(N)ncc(C#N)c3-c3ccc(Cl)cc3)[nH]c2cc1C
5. COc1ccc(NC(=O)n2nc(/C=C\c3ccc(O)c(OC)c3)cc2/C=C\c2ccc(O)c(OC)c2)cc1
6. C[C@]12CC[C@@H](OC(=O)N(CCCl)N=O)C[C@@H]1CC[C@@H]1[C@@H]2CC[C@]2(C)C(=O)CC[C@@H]12

Ans:
3.59
8.94
31.3
84.2
36.4
18.9

----------
Test system: MDA-MB-231 breast
Experiment: NCI tumour cell line growth inhibition, 48 h
*1 amine or outer side, *2 acyl side, *3 side chain or, on linkers, in order; H or OH if unused. Where a SMILES comes first, the peptide text is derived from it. Bridges are numbered along the chain shown (N, C = ends). [ ]: non-standard residue; d: D form. ξ: configuration not given here. X35 = CC[C@H](C)[C@@H](N[*:1])[C@@H](O)CC(=O)O[C@H](C(=O)[C@H](C)C(=O)[*:2])C(C)C; NMeY = CN[C@@H](Cc1ccc(O)cc1)C(=O)O; dNMeL = CN[C@H](CC(C)C)C(=O)O; ξΔPro = O=C(O)C1C=CCN1
reportedMetric: TGI

Worked cases, answers included:
CC(=O)O[C@H]1CCC2[C@@H]3CCC4NC(=O)C(C#N)C[C@]4(C)C3CC[C@@]21C (stereo not given in full) : > 10 µM
CC[C@H](C)[C@H]1NC(=O)[C@@H](NC(=O)[C@@H](CC(C)C)N(C)C(=O)C2C=CCN2)[C@@H](C)OC(=O)[C@H](Cc2ccc(OC)cc2)N(C)C(=O)[C@@H]2CCCN2C(=O)[C@H](CC(C)C)NC(=O)[C@@H](C)C(=O)[C@H](C(C)C)OC(=O)C[C@@H]1O (stereo not given in full) (H-[ξΔPro][dNMeL]T[X35]LP[NMeY](Me); ester 3-C) : < 0.0464 µM
N#C/C(=C1/c2cc([N+](=O)[O-])ccc2-c2c1cc([N+](=O)[O-])cc2[N+](=O)[O-])N1CCCCC1 : > 100 µM
C/C=C(/C)c1cnc(CC(C)C)c(=O)[nH]1 : > 100 µM

Would you kindly look at the next entry?
Q: Sample CCCCCCCCCCCCCCCCCCNC(=O)OCC(CNS(=O)(=O)CCC[n+]1cccc2ccccc21)COC (stereo not given) — what was its TGI?
Ans: 4.05 µM

----------
Tested on: OVCAR-3 ovarian
Assay: NCI tumour cell line growth inhibition, 48 h; in the data active = GI50 below about 0.43 µM; inactive = the rest
Your response should consist of one outcome taken from active, inactive

Below are worked cases with known answers.
COC(=O)c1ccc(CN2C(=O)C(Cl)=C(Nc3ccc(OC)c(Cl)c3)C2=O)cc1 : inactive
CSc1nsc(S/C=C\C(=O)c2ccc(C)cc2)n1 : inactive
COc1ccc([C@@H](O)c2cc(-c3ncnc4cc(N5CCOCC5)ccc34)c(F)cc2Cl)nn1 : inactive
CCOC(=O)c1c2c(n(Cc3ccccc3)c1C)-c1nc(Cc3ccccc3)[nH]c1C(=O)C2=O : inactive
COc1ccc(/C=C\c2cc(OC)c(OC)c(OC)c2)c(NS(=O)(=O)c2ccc(Cl)cc2)c1O : active

Q: Lab log entry: Clc1ccc2c(c1)C(N1CCNCC1)=Nc1ccccc1O2 — outcome as called in the assay?
Ans: inactive

Q: Lab log entry: CC12CC=CCC1CCC1C2CCC2(C)C(c3ccc(=O)oc3)CCC12O (configuration not stated) — outcome as called in the assay?
Ans: active

----------
Tested on: LOX IMVI melanoma
Test: NCI tumour cell line growth inhibition, 48 h
reportedMetric: TGI (µM)
Give bare numbers, in µM.

Worked cases, answers included:
COc1ccccc1NC(=S)N/N=C/c1ccccn1 : 6.8
CNCCNc1nc2ccccc2c2c(=O)c3cc(F)ccc3sc12 : 2.98
C=CCCCCn1c2ccccc2c2c(C)c3cnccc3c(C)c21 : 82.5
CC1=CC[C@](C)(O)[C@@]2(C)CC[C@H]3C(=C(C)C)C(=O)C[C@]3(C)C[C@H]12 : 17

Q: Lab note: need TGI with LOX IMVI melanoma for entry COC(=O)[C@H]1[C@H]2C[C@@H]3c4[nH]c5cc(OC)ccc5c4CCN3C[C@H]2C[C@@H](OC(=O)/C=C/c2cc(OC)c(OC)c(OC)c2)[C@@H]1OC , please look it up.
Ans: 13.1

----------
Tested on: HL-60(TB) leukemia
Assay: NCI tumour cell line growth inhibition, 48 h
reportedMetric: GI50

COc1cc(/C=C2\CC3C4CC=C5C[C@@H](O)CC[C@]5(C)C4CC[C@]3(C)C2=O)ccc1OCCCn1ccnc1 (some centres undefined) : 19400 nM
Cc1cnc(Nc2ccc(OCCN3CCCC3)cc2)nc1Nc1cccc(S(=O)(=O)NC(C)(C)C)c1 : 516 nM
COc1ccc([C@@H](O)c2cc(-c3ncnc4cc(N5CCOCC5)ccc34)c(F)cc2Cl)nn1 : 360 nM
C=C(C)[C@@H]1CC[C@]2(CO)CC[C@]3(C)[C@H](CC[C@@H]4[C@@](C)(CCCN)[C@H](C(=C)C)CC[C@]43C)[C@@H]12 : 1780 nM
CC(=O)c1cccc(-c2cccc(-c3ccn(CCN4CCOCC4)n3)c2)c1 : > 20000 nM

For each listed entry, give its GI50.
1. O=C(Nc1ccc(Br)cc1)Nc1nn(C(=O)Nc2ccc(Br)cc2)c2ccccc12
2. COc1cc2c3c(ncc2c(OC)c1OC)-c1cc2c(cc1C3)OCO2
3. Clc1ccc2c(c1)C(N1CCNCC1)=Nc1ccccc1O2
4. CCC[CH2][Sn]1([CH2]CCC)[O]C(=O)c2ccc(N)cc2[O]1

Ans:
1: 12000 nM; 2: 28.8 nM; 3: 1950 nM; 4: 105 nM
